Please go through the items and note down their IC50 IL-2.
- System: IL-2 production of mouse T cell strain EL-4 (TPA)
- test_protocol: Suppressive effect on the cytokine production of mouse T cell strain EL-4: IL-2
- Format: cell-based
- test_context: EL-4, TPA 10 ng/ml, 24 hours, ELISA

Summary line: `COc1cc(-c2ccc(O)cc2)c(OC)c(O)c1-c1ccc(OCC=NNC(N)=O)c(O)c1` , IL-2 production of mouse T cell strain EL-4 (TPA), reported IC50 IL-2 = >1 µg/mL

Summary line: `COc1cc(-c2ccc(OS(C)(=O)=O)cc2)c(OC)c(OS(C)(=O)=O)c1-c1ccc(OCc2ccc(-c3ccccc3)cc2)c(OS(C)(=O)=O)c1` , IL-2 production of mouse T cell strain EL-4 (TPA), reported IC50 IL-2 = >1 µg/mL

Summary line: `COc1cc(-c2ccc(OS(C)(=O)=O)cc2)c(OC)c(OS(C)(=O)=O)c1-c1ccc(OCCC=C(C)C)cc1` , IL-2 production of mouse T cell strain EL-4 (TPA), reported IC50 IL-2 = >1 µg/mL

Summary line: `COc1cc(-c2ccc(C(F)(F)F)cc2)c(OC)c(O)c1-c1ccc(OCC=C(C)C)c(O)c1` , IL-2 production of mouse T cell strain EL-4 (TPA), reported IC50 IL-2 = >0.1 µg/mL

---

- Test system: IL-5 production of mouse T cell strain EL-4 (TPA)
- test_protocol: Suppressive effect on the cytokine production of mouse T cell strain EL-4: IL-5
- Format: cell-based
- test_context: EL-4, TPA 10 ng/ml, 24 hours, ELISA
- Description: Experiment 8 Suppressive Effect on the Cytokine Production of a Mouse T Cell Strain EL-4 In 48-well plate were added 2×10^5 mouse T cell strain EL-4 which were suspended in 0.2 ml of 1% fetal bovine serum-added RPMI 1640 medium (2 mM of sodium bicarbonate, 50 units/ml of penicillin, 50 μg/ml of streptomycin and 5×10^−5 M of 2-mercaptoethanol were added) and the compound of the present invention of a predetermined concentration. […]
Please go through the items and note down their IC50 IL-5.

Summary line: `COc1cc(-c2ccc(OS(C)(=O)=O)cc2)c(OC)c(OS(C)(=O)=O)c1-c1ccc(OCc2c(C)cc(C)cc2C)c(OS(C)(=O)=O)c1` , IL-5 production of mouse T cell strain EL-4 (TPA), reported IC50 IL-5 = <0.02 µg/mL

Summary line: `COc1cc(-c2ccc(O)cc2)c(OC)c(O)c1-c1ccc(OC/C=C(\C)CCC=C(C)C)c(O)c1` , IL-5 production of mouse T cell strain EL-4 (TPA), reported IC50 IL-5 = 0.11 µg/mL

Summary line: `COc1cc(-c2ccc(OS(C)(=O)=O)cc2)c(OC)c(OS(C)(=O)=O)c1-c1ccc(OCc2ccc(-c3ccccc3)cc2)c(OS(C)(=O)=O)c1` , IL-5 production of mouse T cell strain EL-4 (TPA), reported IC50 IL-5 = >1 µg/mL

---

Please go through the items and note down their EL-4 IC50.
- Tested on: mouse thymoma strain EL4 cells
- test_protocol: Anti-proliferative activity on EL4 cells (MTT)
- Assay type: cell-based
- test_context: 3 days
I only need the number, in µg/mL, no unit after it.

Entry `COCOc1c(OC)c(-c2ccc(OC)cc2)cc(OC)c1-c1ccc(OCc2ccccc2)c(O)c1` ; EL-4 IC50 = 0.012

Entry `COc1cc(-c2ccc3c(c2)OCO3)c(OC)c(O)c1-c1ccc(OCC=C(C)C)c(O)c1` ; EL-4 IC50 = 0.0234

Entry `COc1cc(-c2ccc(OCC=C(C)C)c(O)c2)c(OC)cc1-c1ccc(OCC=C(C)C)c(O)c1` ; EL-4 IC50 = 0.00048
